Catalogue of Percent Effect readings, one per entry.
molecular target: Arginase-2, mitochondrial (Homo sapiens) (UniProt P78540); assay: in vitro enzyme assay to detect the production of urea directly proportional to the activity of Arginase II; format: functional; design: scale not given: in the data most compounds retested in dose-response had high values; settings: 33.3 µM
Sequence (P78540 whole entry): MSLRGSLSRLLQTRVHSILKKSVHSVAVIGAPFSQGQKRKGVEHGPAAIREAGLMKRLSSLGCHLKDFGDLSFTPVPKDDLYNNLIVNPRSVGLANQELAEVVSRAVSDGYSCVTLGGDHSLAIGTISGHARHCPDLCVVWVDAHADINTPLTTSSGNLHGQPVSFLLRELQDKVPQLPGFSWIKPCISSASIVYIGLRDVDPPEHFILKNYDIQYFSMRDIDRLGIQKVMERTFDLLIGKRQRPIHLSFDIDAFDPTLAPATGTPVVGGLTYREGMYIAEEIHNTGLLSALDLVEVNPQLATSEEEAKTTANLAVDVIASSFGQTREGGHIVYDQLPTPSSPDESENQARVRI
experimentalReadout: Percent Effect (%)

compound="CS(=O)(=O)CCC(=O)N1CCC2(CCCN(C3CCOCC3)C2=O)C1 (stereo unspecified)" targetorsystem="Arginase-2, mitochondrial (Homo sapiens) (UniProt P78540)" reportedvalue=-3.19
compound=Cc1ccsc1C(=O)N1Cc2ccccc2C2(CCN(C)CC2)C1 targetorsystem="Arginase-2, mitochondrial (Homo sapiens) (UniProt P78540)" reportedvalue=-2.02
compound="Cc1ncc(CNC(=O)N(C)C2CCN(c3ccccc3)C2=O)s1 (stereo unspecified)" targetorsystem="Arginase-2, mitochondrial (Homo sapiens) (UniProt P78540)" reportedvalue=3.45
compound=CCS(=O)(=O)NCCNC(=O)c1cc(Cl)c2c(c1)OCCCO2 targetorsystem="Arginase-2, mitochondrial (Homo sapiens) (UniProt P78540)" reportedvalue=5.21
compound="Cc1ccc(-c2cc(CN3CCCC(Cn4cncn4)C3)on2)cc1 (stereo unspecified)" targetorsystem="Arginase-2, mitochondrial (Homo sapiens) (UniProt P78540)" reportedvalue=1.84
compound=Cc1cccc(CN2C[C@@H]3CN(C(=O)[C@H]4CCCO4)C[C@@H]3C2=O)c1 targetorsystem="Arginase-2, mitochondrial (Homo sapiens) (UniProt P78540)" reportedvalue=-2.28
compound=C1CC(CN2CCO[C@H]3[C@H](OCC4CC4)CC[C@@H]32)CCO1 targetorsystem="Arginase-2, mitochondrial (Homo sapiens) (UniProt P78540)" reportedvalue=2.08
compound=CCn1cc(CN(C)S(=O)(=O)c2cnn(CC)c2C)c(C)n1 targetorsystem="Arginase-2, mitochondrial (Homo sapiens) (UniProt P78540)" reportedvalue=3.1
compound="CCn1ccnc1CN1CCCC(CO)(Cc2cccc(Cl)c2)C1 (stereo unspecified)" targetorsystem="Arginase-2, mitochondrial (Homo sapiens) (UniProt P78540)" reportedvalue=-1.24
compound="Cn1ccnc1CN1CCCC(Cc2ccccn2)C1 (stereo unspecified)" targetorsystem="Arginase-2, mitochondrial (Homo sapiens) (UniProt P78540)" reportedvalue=-2.55
compound=CCCNC(=O)c1ccc(NC(=O)c2cccc(OCC)c2)cc1 targetorsystem="Arginase-2, mitochondrial (Homo sapiens) (UniProt P78540)" reportedvalue=0.952

====

target: Chromo domain-containing protein 1 (Saccharomyces cerevisiae (strain ATCC 204508 / S288c) (Baker's yeast)) (UniProt P32657); test: ScCHD-1 Enzyme Inhibition Assay; assay type: functional; set-up: scale not given: in the data most compounds retested in dose-response had high values; conditions: 30 µM
Sequence (P32657 whole entry, the tested form may be a part): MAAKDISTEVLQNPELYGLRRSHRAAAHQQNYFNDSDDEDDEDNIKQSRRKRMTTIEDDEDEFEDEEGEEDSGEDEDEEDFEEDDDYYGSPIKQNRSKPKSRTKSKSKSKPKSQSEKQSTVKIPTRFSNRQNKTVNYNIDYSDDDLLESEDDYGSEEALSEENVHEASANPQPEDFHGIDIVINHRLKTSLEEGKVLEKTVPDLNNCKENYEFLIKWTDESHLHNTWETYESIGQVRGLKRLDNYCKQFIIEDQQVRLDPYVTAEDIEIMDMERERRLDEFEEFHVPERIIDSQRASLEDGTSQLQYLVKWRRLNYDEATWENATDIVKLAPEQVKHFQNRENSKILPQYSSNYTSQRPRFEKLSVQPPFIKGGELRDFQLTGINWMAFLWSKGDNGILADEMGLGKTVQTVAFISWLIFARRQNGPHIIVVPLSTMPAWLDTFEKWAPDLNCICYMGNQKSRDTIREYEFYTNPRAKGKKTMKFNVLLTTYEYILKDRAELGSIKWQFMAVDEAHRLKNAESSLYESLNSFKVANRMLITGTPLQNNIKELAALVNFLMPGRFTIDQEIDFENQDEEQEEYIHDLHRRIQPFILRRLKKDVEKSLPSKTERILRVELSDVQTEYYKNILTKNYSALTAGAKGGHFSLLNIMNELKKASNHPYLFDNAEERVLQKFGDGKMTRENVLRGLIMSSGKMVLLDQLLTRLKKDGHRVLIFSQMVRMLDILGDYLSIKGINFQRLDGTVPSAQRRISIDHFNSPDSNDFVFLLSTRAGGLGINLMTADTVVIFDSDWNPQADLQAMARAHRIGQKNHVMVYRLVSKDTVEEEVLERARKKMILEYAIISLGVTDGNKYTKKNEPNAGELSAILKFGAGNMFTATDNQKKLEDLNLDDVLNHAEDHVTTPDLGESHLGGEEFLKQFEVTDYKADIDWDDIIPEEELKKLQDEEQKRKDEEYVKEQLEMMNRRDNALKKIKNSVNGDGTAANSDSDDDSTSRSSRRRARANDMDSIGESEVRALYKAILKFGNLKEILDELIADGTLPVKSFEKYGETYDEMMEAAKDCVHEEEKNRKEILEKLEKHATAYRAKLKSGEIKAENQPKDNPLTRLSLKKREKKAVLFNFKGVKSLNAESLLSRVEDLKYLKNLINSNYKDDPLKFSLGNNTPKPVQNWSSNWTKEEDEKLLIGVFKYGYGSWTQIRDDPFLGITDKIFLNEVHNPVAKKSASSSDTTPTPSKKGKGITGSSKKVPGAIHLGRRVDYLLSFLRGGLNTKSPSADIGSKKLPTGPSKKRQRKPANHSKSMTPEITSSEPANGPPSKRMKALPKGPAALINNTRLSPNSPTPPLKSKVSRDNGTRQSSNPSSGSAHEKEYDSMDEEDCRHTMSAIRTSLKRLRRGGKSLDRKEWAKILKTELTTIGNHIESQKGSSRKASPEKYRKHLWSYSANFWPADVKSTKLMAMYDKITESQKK
experimentalReadout: Percent Effect

compound="Cc1ccccc1N1CC2(CCN(S(=O)(=O)c3cccs3)C2)CC1=O (stereo not given)" experimentalreadout="Percent Effect" reportedvalue=-9.98%
compound="CC(c1cccc(S(N)(=O)=O)c1)N(C)CCc1ccccc1 (stereo not given)" experimentalreadout="Percent Effect" reportedvalue=-9.02%
compound="Cc1cnn(CC2CCCCN2Cc2nnc(-c3ccco3)o2)c1 (stereo not given)" experimentalreadout="Percent Effect" reportedvalue=-11.7%
compound=O=C1CCCCN1Cc1cccc(NC(=O)N2CCSCC2)c1 experimentalreadout="Percent Effect" reportedvalue=-6.96%
compound=COCCOc1ncccc1CNCc1c(C)nn(C)c1N(C)C experimentalreadout="Percent Effect" reportedvalue=-18.1%
compound="COc1cccc2c1OCC(C(=O)N(C)CCCc1cnn(C)c1)C2 (stereo not given)" experimentalreadout="Percent Effect" reportedvalue=-4.59%
compound=Cc1cccc(NC(=O)NCCCn2nc3ccccn3c2=O)c1C experimentalreadout="Percent Effect" reportedvalue=-9.2%
compound="Cc1cc(C)n(CC2CN(Cc3cscn3)CCO2)n1 (stereo not given)" experimentalreadout="Percent Effect" reportedvalue=-11.6%
compound=CC(C)C(=O)NCCCn1ncc2c(Cl)cccc21 experimentalreadout="Percent Effect" reportedvalue=-3.62%
compound="Cc1cc2n(n1)CC(CNCc1ccc(-n3cccn3)nc1)CN2 (stereo not given)" experimentalreadout="Percent Effect" reportedvalue=-9.89%
compound="COc1ccccc1N1CCC(CNCc2cccc(OC)c2OC)C1 (stereo not given)" experimentalreadout="Percent Effect" reportedvalue=-8.44%
compound="CS(=O)(=O)NCC1CCCN(C(=O)c2ccc(Cl)o2)C1 (stereo not given)" experimentalreadout="Percent Effect" reportedvalue=-10%
compound=Cc1nnc(NC(=O)NCc2cccnc2N(C)C)s1 experimentalreadout="Percent Effect" reportedvalue=-9.15%
compound=O=C(CSc1ncccn1)N1C[C@H]2CC[C@@H]1CN(Cc1ccncc1)C2 experimentalreadout="Percent Effect" reportedvalue=-3.96%
compound=COc1ccc(Br)c(C(=O)NCC2CCN(C(=O)c3ccoc3)CC2)c1 experimentalreadout="Percent Effect" reportedvalue=-6.16%
compound=O=C(Cc1cccnc1)N1CCC2(CC1)CCN(C1CCOCC1)C2 experimentalreadout="Percent Effect" reportedvalue=1.45%
compound=O=C(NCCN1CCCCC1)c1scnc1Cl experimentalreadout="Percent Effect" reportedvalue=-5.64%
compound=CCn1cnnc1CNC(=O)N1CCOCC1 experimentalreadout="Percent Effect" reportedvalue=-2.64%
compound=COCCN1CCN(C(=O)C2CC=CC2)Cc2cccnc21 experimentalreadout="Percent Effect" reportedvalue=-7.24%
compound=CNC(=O)C1CCN(C(=O)c2cccn2Cc2cccs2)CC1 experimentalreadout="Percent Effect" reportedvalue=-7.72%
compound="CC(=O)N1CCC2(CCCN(C(=O)c3ccccc3)C2)C1 (stereo not given)" experimentalreadout="Percent Effect" reportedvalue=5.13%
compound="O=C(CCN1CCOC(Cn2cccn2)C1)NC1CCCC1 (stereo not given)" experimentalreadout="Percent Effect" reportedvalue=-15.2%
compound="Cc1nc(CN(C)C2CCN(CC(=O)N3CCOCC3)C2)no1 (stereo not given)" experimentalreadout="Percent Effect" reportedvalue=-3.28%
compound=CCc1nc(C)c(C(=O)NCCN2CCN(C(C)=O)CC2)s1 experimentalreadout="Percent Effect" reportedvalue=-6.18%
compound="CCNC(=O)c1ccnc(NCC2COc3cc(OC)ccc3C2)c1 (stereo not given)" experimentalreadout="Percent Effect" reportedvalue=-4.55%

Data credit: ChEMBL document CHEMBL3988442
